Tested on: HeLa
Experiment: Cytotoxicity against human HeLa cells of light exposed compound after 12 hrs by WST-8 assay
Assay type: functional, cell-based
Metric: Activity

[[record]]
given_smiles = "CCC1=C(C)c2cc3[nH]c(cc4nc(c5c6[nH]c(cc1n2)c(C)c6C(=O)N(OC)C5=O)[C@@H](CCC(=O)OC)[C@@H]4C)c(C)c3/C=C/c1ccc2ccccc2[n+]1C"
metric = "Activity"
value_measured = "Dose-dependent effect"

[[record]]
given_smiles = "CCC1=C(C)c2cc3[nH]c(cc4nc(c5c6[nH]c(cc1n2)c(C)c6C(=O)N(OC)C5=O)[C@@H](CCC(=O)OC)[C@@H]4C)c(C)c3/C=C/c1cccc[n+]1C"
metric = "Activity"
value_measured = "Dose-dependent effect"

[[record]]
given_smiles = "C=Cc1c(C)c2cc3nc(c4c5[nH]c(cc6nc(cc1[nH]2)C(C)=C6CC)c(C)c5C(=O)N(OC)C4=O)[C@@H](CCC(=O)OC)[C@@H]3C"
metric = "Activity"
value_measured = "Dose-dependent effect"


###

Tested on: HeLa
Experiment: Cytotoxicity against human HeLa cells of light exposed compound after 12 hrs by WST-8 assay
Format: functional, cell-based
Metric: Activity

[[record]]
compound = "CCC1=C(C)c2cc3[nH]c(cc4nc(c5c6[nH]c(cc1n2)c(C)c6C(=O)C5)[C@@H](CCC(=O)OC)[C@@H]4C)c(C)c3/C=C/c1ccc2ccccc2[n+]1C"
value_measured = "Dose-dependent effect"

[[record]]
compound = "CCC1=C(C)c2cc3[nH]c(cc4nc(c5c6[nH]c(cc1n2)c(C)c6C(=O)C5)[C@@H](CCC(=O)OC)[C@@H]4C)c(C)c3/C=C/c1cc[n+](C)cc1"
value_measured = "Dose-dependent effect"

[[record]]
compound = "C=Cc1c(C)c2cc3nc(c4c5[nH]c(cc6nc(cc1[nH]2)C(C)=C6CC)c(C)c5C(=O)C4)[C@@H](CCC(=O)OC)[C@@H]3C [METHYL PYROPHEOPHORBIDE A]"
value_measured = "Dose-dependent effect"

